Measured Cell Viability accompanies every entry in the list below.
- Test system: HaCaT/ARE cells
- METHOD SUMMARY: Cell viability (resazurin) in the reporter screen
- CONDITION DESCRIPTION: 10 μM; in % (unit assumed)
// response body must contain only the number

**Query** Requested field: Cell Viability. Item: CCN(CC)CCOC(=O)c1ccc(Nc2cc(/C=C/C(=O)c3ccc(OC)cc3)nc3ccccc23)cc1 [14h]
**Result** 76.8

**Query** Requested field: Cell Viability. Item: C/C(=N\OCCCN(C)C)c1ccc(Nc2cc(/C=C/C(=O)c3ccccc3)nc3ccccc23)cc1 [12e]
**Result** 69.5

**Query** Requested field: Cell Viability. Item: CCN(CC)CCNC(=O)c1ccc(Nc2cc(/C=C/C(=O)c3ccc(F)cc3)nc3ccccc23)cc1 [14f]
**Result** 66.3

**Query** Requested field: Cell Viability. Item: C/C(=N\OCCCN(C)C)c1ccc(Nc2cc(/C=C/C(=O)c3ccc(F)cc3)nc3ccccc23)cc1 [14e]
**Result** 76.7

**Query** Requested field: Cell Viability. Item: CCN(CC)CCNC(=O)c1ccc(Nc2cc(/C=C/C(=O)c3ccccc3)nc3ccccc23)cc1 [12f]
**Result** 78.8

Next:
**Query** Requested field: Cell Viability. Item: COc1ccc(/C=C/C(=O)c2c(O)cc(OC)cc2OC)cc1 [Flavokawain A, reference compound]
**Result** 95.9

**Query** Requested field: Cell Viability. Item: CC(=O)c1ccc(Nc2cc(/C=C/C(=O)c3ccccc3)nc3ccccc23)cc1 [12b]
**Result** 71.2

**Query** Requested field: Cell Viability. Item: O=C(O)c1ccc(Nc2cc(/C=C/C(=O)c3ccccc3)nc3ccccc23)cc1 [12c]
**Result** 81.4

###

Structures can show the parent of a compound that is named as a salt.
QUANTITY MEASURED: melting point

**Query** Requested field: melting point. Item: CC(=O)c1ccc(Nc2cc(/C=C/C(=O)c3ccccc3)nc3ccccc23)cc1 (as salt: hydrochloride) [12b]
**Result** 248.7 to 249.2 °C

**Query** Requested field: melting point. Item: O=C(/C=C/c1cc(Nc2ccccc2)c2ccccc2n1)c1ccccc1 (as salt: hydrochloride) [12a]
**Result** 238.5 to 239.2 °C

Next:
**Query** Requested field: melting point. Item: C/C(=N\OCCN)c1ccc(Nc2cc(/C=C/C(=O)c3ccccc3)nc3ccccc23)cc1 (as salt: hydrochloride) [12d]
**Result** 200.2 to 201.5 °C

**Query** Requested field: melting point. Item: O=C(O)c1ccc(Nc2cc(/C=C/C(=O)c3ccccc3)nc3ccccc23)cc1 (as salt: hydrochloride) [12c]
**Result** 298.3 to 298.9 °C

**Query** Requested field: melting point. Item: C/C(=N\OCCCN(C)C)c1ccc(Nc2cc(/C=C/C(=O)c3ccccc3)nc3ccccc23)cc1 (as salt: hydrochloride) [12e]
**Result** 155.6 to 156.6 °C

**Query** Requested field: melting point. Item: CCN(CC)CCOC(=O)c1ccc(Nc2cc(/C=C/C(=O)c3ccc(OC)cc3)nc3ccccc23)cc1 (as salt: hydrochloride) [14h]
**Result** 158.7 to 159.3 °C

**Query** Requested field: melting point. Item: CCN(CC)CCOC(=O)c1ccc(Nc2cc(/C=C/C(=O)c3ccc(F)cc3)nc3ccccc23)cc1 (as salt: hydrochloride) [13h]
**Result** 135.4 to 135.8 °C

**Query** Requested field: melting point. Item: CCN(CC)CCOC(=O)c1ccc(Nc2cc(/C=C/C(=O)c3ccccc3)nc3ccccc23)cc1 (as salt: hydrochloride) [12h]
**Result** 158.7 to 159.3 °C

###

- Test system: HaCaT/ARE cells
- METHOD SUMMARY: Cell viability (resazurin) in the reporter screen
- CONDITION DESCRIPTION: 10 μM; in % (unit assumed)
Binary call on Cell Viability with cut-off 70: strictly below means fulfilled, and equality or higher means not fulfilled.

**Query** Dear reviewer, please state whether O=C(/C=C/c1cc(Nc2ccccc2)c2ccccc2n1)c1ccccc1 [12a] has Cell Viability strictly beneath 70.
**Result** fulfilled

**Query** Dear reviewer, please state whether CC(C)(C)c1cc(O)ccc1O [t-BHQ, tert-Butyl hydroquinone, reference compound] has Cell Viability strictly beneath 70.
**Result** not fulfilled

**Query** Dear reviewer, please state whether CCN(CC)CCNC(=O)c1ccc(Nc2cc(/C=C/C(=O)c3ccc(OC)cc3)nc3ccccc23)cc1 [13f] has Cell Viability strictly beneath 70.
**Result** not fulfilled

Next:
**Query** Dear reviewer, please state whether CCN(CC)CCOC(=O)c1ccc(Nc2cc(/C=C/C(=O)c3ccc(F)cc3)nc3ccccc23)cc1 [13h] has Cell Viability strictly beneath 70.
**Result** not fulfilled

###

- METHOD SUMMARY: Cytotoxicity, 72 h resazurin cell viability assay
- Assay type: cell-based, human
- CONDITION DESCRIPTION: human
QUANTITY MEASURED: CC50 at 72 h (µM)
# unit: µM | format: bare number

**Query** Requested field: CC50 at 72 h. Item: CC(=O)c1ccc(Nc2cc(/C=C/C(=O)c3ccccc3)nc3ccccc23)cc1 [12b]
**Result** 9.3
